For each of the compounds below, state its IC50.
- tested system: CK2A2 (Homo sapiens, UniProt P19784)
- Construct: purchased Eurofins
- Sequence (P19784 whole entry): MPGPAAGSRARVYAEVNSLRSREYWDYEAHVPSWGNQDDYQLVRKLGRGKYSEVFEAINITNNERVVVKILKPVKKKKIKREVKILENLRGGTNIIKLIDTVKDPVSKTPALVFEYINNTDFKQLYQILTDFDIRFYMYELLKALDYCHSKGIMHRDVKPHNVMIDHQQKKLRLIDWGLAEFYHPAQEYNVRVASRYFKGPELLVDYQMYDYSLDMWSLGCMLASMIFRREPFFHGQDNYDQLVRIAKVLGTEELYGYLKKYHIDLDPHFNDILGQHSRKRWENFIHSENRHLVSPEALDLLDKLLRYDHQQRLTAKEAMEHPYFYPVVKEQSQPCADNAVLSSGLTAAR
- procedure text: Radiometric kinase assay (Eurofins), CK2A2
- Assay type: biochemical
- condition label: Table 12; read-out: CK2A2 RAD IC50

# count of solved cases: 3
{"columns": ["compound", "tested system", "attribute measured", "measured result"],
 "data": [
  ["COc1cc(/C=C2\\Oc3c(cc(Br)c(OC)c3Br)C2=O)ncc1O [Compound 1164A]", "CK2A2 (Homo sapiens, UniProt P19784)", "IC50", "331 nM"],
  ["C#Cc1cc(-c2cc(=O)c3cc(Br)c(OC)c(Br)c3o2)ccc1O [Compound 1212A]", "CK2A2 (Homo sapiens, UniProt P19784)", "IC50", "1260 nM"],
  ["O=C1/C(=C/c2ccc(O)cn2)Oc2c(Br)cc(Br)cc21 [Compound 1143A]", "CK2A2 (Homo sapiens, UniProt P19784)", "IC50", "> 5000 nM"]
]}

Quick request: IC50 for each listed item, please.
1. COc1ccc2c(c1Br)O/C(=C\c1ccc(O)c(C3CC3)c1)C2=O [Compound 1135B]
2. COc1c(Br)cc2c(c1Br)O/C(=C\c1ccc(O)c(C3CC3)c1)C2=O [Compound 1134A]
3. C#Cc1cc(/C=C2\Oc3c(Br)cc(Br)cc3C2=O)ccc1O [Compound 1224A]
4. C#Cc1cc(/C=C2\Oc3c(cc(Br)c(OC)c3Br)C2=O)ccc1O [Compound 1229A]
5. O=C1/C(=C/c2ccc(O)c(C3CC3)c2)Oc2c(Br)cc(Br)cc21 [Compound 1131A]
6. O=C1/C(=C/c2ccc(O)c(C3CC3)c2)Oc2c(Br)cccc21 [Compound 1220A]
7. COc1nc(/C=C2\Oc3c(Br)cc(Br)cc3C2=O)ccc1O [Compound 1150A]
8. COc1cc(/C=C2\Oc3c(Br)cccc3C2=O)ncc1O [Compound 1236B]

1: > 5000 nM; 2: > 5000 nM; 3: 77 nM; 4: 49 nM; 5: > 5000 nM; 6: > 5000 nM; 7: 109 nM; 8: 141 nM

Kindly give each listed record's IC50.
1. C#Cc1cc(/C=C2\Oc3c(ccc(OC)c3Br)C2=O)ccc1O [Compound 1231A]
2. COc1cc(/C=C2\Oc3c(Br)cc(Br)cc3C2=O)ncc1O [Compound 1163A]

1. 206 nM
2. 403 nM

* * *

Kindly supply the reported pIC50 values for the records listed here.
- tested system: CK2A1 (Homo sapiens, UniProt P68400)
- Construct: purchased Eurofins
- Sequence (P68400 whole entry): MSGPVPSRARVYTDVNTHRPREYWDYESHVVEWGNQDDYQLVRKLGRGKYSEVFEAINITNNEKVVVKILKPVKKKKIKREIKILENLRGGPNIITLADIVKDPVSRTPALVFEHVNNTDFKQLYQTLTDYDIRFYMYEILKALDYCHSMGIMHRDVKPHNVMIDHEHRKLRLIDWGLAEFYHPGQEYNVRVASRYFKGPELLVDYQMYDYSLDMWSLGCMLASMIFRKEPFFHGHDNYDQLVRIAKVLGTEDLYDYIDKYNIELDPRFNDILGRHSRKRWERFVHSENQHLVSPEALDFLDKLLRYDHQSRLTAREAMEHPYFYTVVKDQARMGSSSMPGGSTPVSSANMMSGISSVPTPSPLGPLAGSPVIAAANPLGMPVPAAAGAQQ
- procedure text: Radiometric kinase assay (Eurofins), CK2A1
- Assay type: biochemical
- condition label: Table 12; read-out: CK2A1 RAD IC50
Give bare numbers, as −log10 of the molar value.

Past entries and their recorded results:
{"columns": ["compound", "attribute measured", "measured result"],
 "data": [
  ["COc1cc(/C=C2\\Oc3c(Br)cc(Br)cc3C2=O)ncc1O [Compound 1163A]", "pIC50", 7.35],
  ["C#Cc1cc(/C=C2\\Oc3c(Br)cc(Br)cc3C2=O)ccc1O [Compound 1224A]", "pIC50", 6.75]
]}

Turning to the following compound.
What pIC50 value was documented for this compound, COc1ccc2c(c1Br)O/C(=C\c1ccc(O)c(OC)n1)C2=O [Compound 1188A] ? 6.33

* * *

- tested system: CK2A2 (Homo sapiens)
- Construct: purchased Eurofins
- procedure text: Radiometric kinase assay (Eurofins), CK2A2
- Assay type: biochemical
- condition label: Table 9; read-out: CK2A2 RAD IC50
Kindly supply the reported pIC50 values for the records listed here.
Give bare numbers, as −log10 of the molar value.

{"columns": ["compound", "pIC50"],
 "data": [
  ["O=c1[nH]c(-c2cc(Br)c(O)cn2)nc2c(Br)cc(Br)cc12 [Compound 1005A]", 7.28],
  ["O=c1[nH]c(-c2cc(Br)c(O)cn2)nc2c(Br)cccc12 [Compound 1007A]", 6.49],
  ["O=c1[nH]c(-c2ccc(O)c(Cl)n2)nc2c(Cl)cc(Cl)cc12 [Compound 963A]", 7.21],
  ["O=c1[nH]c(-c2ccc(O)c(Cl)n2)nc2c(Br)cccc12 [Compound 964A]", 6.86]
]}

Turning to the following compound.
May I ask what pIC50 has been recorded for O=c1[nH]c(-c2cc(Br)c(O)cn2)nc2c(Cl)cc(Cl)cc12 [Compound 1006A] ? 7.07

* * *

- System: IL-6 secretion
- procedure text: IL-6 secretion assay in astrocytes (Promega Lumit IL-6 kit)
- Assay type: cell-based, human
- condition label: Homo sapiens, Astrocyte; Table 6; read-out: IL6-Inhib.
attribute measured: pIC50
Answers are plain numbers, as −log10 of the molar value.

Give recorded pIC50 with IL-6 secretion for the following compound: COc1cc(-c2cc(=O)c3cc(Br)cc(Br)c3[nH]2)ccc1O [JKT.736A] 5.41

* * *

Would you kindly list log10(IC50) for each of these molecules?
- tested system: CK2A1 (Homo sapiens)
- Construct: purchased Eurofins
- procedure text: Radiometric kinase assay (Eurofins), CK2A1
- Format: biochemical
- condition label: Table 8; quinazolinones; read-out: CK2A1 RAD IC50
Scale: log10; quantity: IC50; unit before log: nM

Guide cases for log10(IC50), answers given:
{"columns": ["molecule", "tested system", "log10(IC50)"],
 "data": [
  ["O=c1[nH]c(-c2cc(Cl)c(O)c(Cl)c2)nc2c(Br)cccc12 [JKT.829A]", "CK2A1 (Homo sapiens)", 2.87],
  ["O=c1[nH]c(-c2ccc(O)c(Br)c2)nc2c(Cl)cc(Cl)cc12 [JKT.805A]", "CK2A1 (Homo sapiens)", 3.46],
  ["O=c1[nH]c(-c2cc(Cl)c(O)c(Cl)c2)nc2c(Cl)cc(Cl)cc12 [JKT.807A]", "CK2A1 (Homo sapiens)", 2.96],
  ["O=c1[nH]c(-c2cc(F)c(O)c(F)c2)nc2c(Br)cc(Br)cc12 [JKT.774A]", "CK2A1 (Homo sapiens)", 2.91],
  ["O=c1[nH]c(-c2ccc(O)c(Cl)n2)nc2c(Br)cc(Br)cc12 [JKT.956A]", "CK2A1 (Homo sapiens)", 2.12]
]}

Would you be so kind as to report log10(IC50) for each listed record?
1. COc1nc(-c2nc3c(Br)nc(Br)cc3c(=O)[nH]2)ccc1O [JKT.976B]
2. O=c1[nH]c(-c2cc(F)c(O)c(F)c2)nc2c(Br)cccc12 [JKT.830A]

1. 2.37
2. 2.94

* * *

Give pIC50 for every item shown.
- tested system: CK2A1 (Homo sapiens, UniProt P68400)
- Construct: purchased Eurofins
- procedure text: Radiometric kinase assay (Eurofins), CK2A1
- Assay type: biochemical
- condition label: Table 6; quinolinones; read-out: CK2A1 RAD IC50
Numbers only, as −log10 of the molar value.

{"columns": ["molecule", "pIC50"],
 "data": [
  ["O=c1cc(-c2ccc(O)c(Br)c2)[nH]c2c(Br)cc(Br)cc12 [JKT.944A]", 6.89]
]}

Lab note: next molecule to report on.
# value lookup — system CK2A1 (Homo sapiens, UniProt P68400), readout pIC50, item COc1cc(-c2cc(=O)c3cc(Br)cc(Br)c3[nH]2)ccc1O [JKT.736A] 7.66

* * *

So I've got a bunch of compounds here, and I need their IC50 values.
- tested system: CK2A2 (Homo sapiens, UniProt P19784)
- Construct: purchased Eurofins
- procedure text: Radiometric kinase assay (Eurofins), CK2A2
- Type: biochemical
- condition label: Table 10; aurones; read-out: CK2A2 IC50
Answers are plain numbers, in nM.

{"columns": ["compound", "tested system", "IC50 [nM]"],
 "data": [
  ["O=C(O)c1ccc(/C=C2\\Oc3c(Br)cc(Br)cc3C2=O)cc1 [JKT.636A]", "CK2A2 (Homo sapiens, UniProt P19784)", 62],
  ["COc1cc(/C=C2\\Oc3c(Br)cc(Br)cc3C2=O)ccc1O [JKT.630A]", "CK2A2 (Homo sapiens, UniProt P19784)", 274],
  ["O=C1/C(=C/c2ccc(O)c(C(F)(F)F)c2)Oc2c(Br)cc(Br)cc21 [JKT.635A]", "CK2A2 (Homo sapiens, UniProt P19784)", 213]
]}

Query (compound): O=C1/C(=C/c2ccc(O)c(Br)c2)Oc2c(Br)cc(Br)cc21 [JKT.634A] ; field requested: IC50 46

* * *

Record form. Attribute: pIC50. Fill in for each entry.
- tested system: CK2A1 (Homo sapiens)
- Construct: purchased Eurofins
- procedure text: Radiometric kinase assay (Eurofins), CK2A1
- Format: biochemical
- condition label: Table 8; quinazolinones; read-out: CK2A1 RAD IC50
Numbers only, as −log10 of the molar value.

{"columns": ["compound", "measured result"],
 "data": [
  ["O=c1[nH]c(-c2ccc(O)c(Br)c2)nc2c(Br)cccc12 [JKT.827A]", 6.55],
  ["COc1nc(-c2nc3c(Br)cc(Br)cc3c(=O)n2C)ccc1O [JKT.983A]", 6.17],
  ["O=c1[nH]c(-c2ccc(O)c(Cl)c2)nc2c(Br)cccc12 [JKT.828A]", 6.19]
]}

Recorded pIC50 of COc1cc(-c2nc3c(Br)cc(Br)cc3c(=O)[nH]2)ccc1O [JKT.737B] , please. 6.06

Origin of the recorded values: patent US20260199350A1
